Target: human CD73 (Homo sapiens)
Construct: purchased R&D Systems 5795-EN-010
Test: Inhibition of 5′-Nucleotidase Activity of CD73 (Assay 1)
Type: biochemical
Details: human CD73 4 ng/ml, 50 μM CMP, 20 min at RT, malachite green readout; read-out: Assay 1: IC50, inhibition of 5′-nucleotidase activity of CD73
pIC50: −log10 of the molar value.

>  <compound>
CCOC(=O)C(OC[C@H]1O[C@@H](n2cnc3ccc(Cl)nc32)[C@H](O)[C@@H]1O)P(=O)(O)O (single isomer, unassigned) [Example 87a]

>  <pIC50>
< 6.00

$$$$
>  <compound>
CCOC(=O)[C@@H](OC[C@H]1O[C@@H](n2cnc3c(OCC)nc(Cl)nc32)[C@H](O)[C@@H]1O)P(=O)(O)O (single isomer, unassigned) [Example 27a]

>  <pIC50>
6.00 to 7.00

$$$$
>  <compound>
CCOC(=O)[C@H](OC[C@H]1O[C@@H](n2cnc3c(N)nc(SCC)nc32)[C@H](O)[C@@H]1O)P(=O)(O)O (single isomer, unassigned) [Example 44]

>  <pIC50>
< 6.00

$$$$
>  <compound>
CCOC(=O)C(OC[C@H]1C[C@@H](n2cnc3c(N)nc(Cl)nc32)[C@H](O)[C@@H]1O)P(=O)(O)O (single isomer, unassigned) [Example 76]

>  <pIC50>
> 7.00

$$$$
>  <compound>
Cc1nnc(C(OC[C@H]2O[C@@H](n3cnc4c(N)nc(Cl)nc43)[C@H](O)[C@@H]2O)P(=O)(O)O)o1 (single isomer, unassigned) [Example 21]

>  <pIC50>
> 7.00

$$$$

----------
pIC50 listing for selected compounds.
Target: human CD73 (Homo sapiens)
Construct: purchased R&D Systems 5795-EN-010
Sequence (P21589 27-549): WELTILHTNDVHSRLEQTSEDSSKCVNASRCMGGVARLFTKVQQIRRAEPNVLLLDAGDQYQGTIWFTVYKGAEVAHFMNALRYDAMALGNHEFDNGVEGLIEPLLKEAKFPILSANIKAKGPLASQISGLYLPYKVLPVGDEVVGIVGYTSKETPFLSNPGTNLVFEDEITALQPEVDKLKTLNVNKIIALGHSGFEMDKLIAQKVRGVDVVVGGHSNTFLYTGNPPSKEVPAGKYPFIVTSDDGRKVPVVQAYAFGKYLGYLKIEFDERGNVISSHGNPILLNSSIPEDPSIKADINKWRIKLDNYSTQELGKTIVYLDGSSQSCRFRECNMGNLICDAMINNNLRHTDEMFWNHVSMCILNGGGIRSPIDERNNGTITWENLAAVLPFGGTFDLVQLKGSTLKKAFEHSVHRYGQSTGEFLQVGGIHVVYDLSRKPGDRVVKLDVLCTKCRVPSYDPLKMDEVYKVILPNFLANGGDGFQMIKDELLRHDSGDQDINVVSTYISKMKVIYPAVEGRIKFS
Assay: Inhibition of 5′-Nucleotidase Activity of CD73 (Assay 1)
Type: biochemical
Conditions: human CD73 4 ng/ml, 50 μM CMP, 20 min at RT, malachite green readout; read-out: Assay 1: IC50, inhibition of 5′-nucleotidase activity of CD73
pIC50: −log10 of the molar value.
measurement-kind: pIC50

>  <compound>
N#Cc1ccccc1CC(OC[C@H]1O[C@@H](n2cnc3c(N)nc(Cl)nc32)[C@H](O)[C@@H]1O)(C(=O)O)C(=O)O

>  <measured-target>
human CD73 (Homo sapiens)

>  <observed>
> 7.00

$$$$
>  <compound>
CCOC(=O)[C@H](OC[C@H]1O[C@@H](n2cnc3c(N)nc(C4CC4)nc32)[C@H](O)[C@@H]1O)P(=O)(O)O (single isomer, unassigned)

>  <measured-target>
human CD73 (Homo sapiens)

>  <observed>
6.00 to 7.00

$$$$
>  <compound>
CCOC(=O)C(OC[C@H]1C[C@@H](n2cnc3c(N)nc(Cl)nc32)[C@H](O)[C@@H]1O)P(=O)(O)O (single isomer, unassigned) [Example 76a]

>  <measured-target>
human CD73 (Homo sapiens)

>  <observed>
6.00 to 7.00

$$$$
>  <compound>
CCOC(=O)[C@@H](OC[C@H]1O[C@@H](n2cnc3c(N)nc(-c4cc(F)cc(F)c4)nc32)[C@H](O)[C@@H]1O)P(=O)(O)O (single isomer, unassigned) [Example 41a]

>  <measured-target>
human CD73 (Homo sapiens)

>  <observed>
< 6.00

$$$$
>  <compound>
CCOC(=O)[C@@H](OC[C@H]1O[C@@H](n2cnc3c(N)nc(F)nc32)[C@H](O)[C@@H]1O)P(=O)(O)O (single isomer, unassigned)

>  <measured-target>
human CD73 (Homo sapiens)

>  <observed>
> 7.00

$$$$
>  <compound>
COc1nc(OC)c2ncn([C@@H]3O[C@H](COC(C(=O)OC(C)(C)C)P(=O)(O)O)[C@@H](O)[C@H]3O)c2n1 (some centres unmarked)

>  <measured-target>
human CD73 (Homo sapiens)

>  <observed>
6.00 to 7.00

$$$$
>  <compound>
Nc1nc(Cl)nc2c1ncn2[C@@H]1O[C@H](COC(Cc2ccc(Cl)cc2)(C(=O)O)C(=O)O)[C@@H](O)[C@H]1O

>  <measured-target>
human CD73 (Homo sapiens)

>  <observed>
> 7.00

$$$$
>  <compound>
CCOC(=O)[C@@H](OC[C@H]1O[C@@H](n2cnc3c(C)nc(Cl)nc32)[C@H](O)[C@@H]1O)P(=O)(O)O (single isomer, unassigned) [Example 28a]

>  <measured-target>
human CD73 (Homo sapiens)

>  <observed>
6.00 to 7.00

$$$$
>  <compound>
CCOC(=O)[C@@H](OC[C@H]1O[C@@H](n2cnc3c(N)nc(Cc4ccccc4)nc32)[C@H](O)[C@@H]1O)P(=O)(O)O (single isomer, unassigned) [Example 39a]

>  <measured-target>
human CD73 (Homo sapiens)

>  <observed>
< 6.00

$$$$
>  <compound>
Nc1nc(Cl)nc2c1ncn2[C@@H]1O[C@H](COC(Cc2ccccc2)(C(=O)O)C(=O)O)[C@@H](O)[C@H]1O

>  <measured-target>
human CD73 (Homo sapiens)

>  <observed>
> 7.00

$$$$
>  <compound>
Nc1nc(Cl)nc2c1ncn2[C@@H]1O[C@H](COC(Cc2ccc(F)cc2)(C(=O)O)C(=O)O)[C@@H](O)[C@H]1O

>  <measured-target>
human CD73 (Homo sapiens)

>  <observed>
> 7.00

$$$$
>  <compound>
Nc1nc(Cl)nc2c1ncn2[C@@H]1O[C@H](COC(C(=O)O)C(=O)O)[C@@H](O)[C@H]1O

>  <measured-target>
human CD73 (Homo sapiens)

>  <observed>
> 7.00

$$$$
>  <compound>
CCOC(=O)C(OC[C@H]1O[C@@H](n2cnc3cc(Cl)c(Cl)cc32)[C@H](O)[C@@H]1O)P(=O)(O)O (single isomer, unassigned) [Example 81a]

>  <measured-target>
human CD73 (Homo sapiens)

>  <observed>
< 6.00

$$$$
>  <compound>
CCOC(=O)C(OC[C@H]1C[C@@H](n2nnc3c(N[C@H]4CCOC4)nc(Cl)nc32)[C@H](O)[C@@H]1O)P(=O)(O)O (some centres unmarked)

>  <measured-target>
human CD73 (Homo sapiens)

>  <observed>
> 7.00

$$$$
>  <compound>
CCOC(=O)[C@H](OC[C@H]1O[C@@H](n2ccc(=O)n(C)c2=O)[C@H](O)[C@@H]1O)P(=O)(O)O (single isomer, unassigned)

>  <measured-target>
human CD73 (Homo sapiens)

>  <observed>
6.00 to 7.00

$$$$
>  <compound>
CC(=O)NNC(=O)C(OC[C@H]1O[C@@H](n2cnc3c(N)nc(Cl)nc32)[C@H](O)[C@@H]1O)P(=O)(O)O (some centres unmarked)

>  <measured-target>
human CD73 (Homo sapiens)

>  <observed>
> 7.00

$$$$
>  <compound>
CC(C)(C)NC(=O)[C@@H](OC[C@H]1O[C@@H](n2cnc3c(N)nc(Cl)nc32)[C@H](O)[C@@H]1O)P(=O)(O)O (single isomer, unassigned) [Example 19a]

>  <measured-target>
human CD73 (Homo sapiens)

>  <observed>
6.00 to 7.00

$$$$
>  <compound>
CCOC(=O)[C@H](OC[C@H]1O[C@@H](n2cnc3c(NC4CCCC4)nc(Cl)nc32)[C@H](O)[C@@H]1O)P(=O)(O)O (single isomer, unassigned)

>  <measured-target>
human CD73 (Homo sapiens)

>  <observed>
> 7.00

$$$$
>  <compound>
CCS(=O)(=O)C(OC[C@H]1O[C@@H](n2cnc3c(N)nc(Cl)nc32)[C@H](O)[C@@H]1O)P(=O)(O)O (single isomer, unassigned) [Example 11a]

>  <measured-target>
human CD73 (Homo sapiens)

>  <observed>
6.00 to 7.00

$$$$
>  <compound>
O=C(O)C(OC[C@H]1O[C@@H](n2cnc3c(N[C@@H]4CCOC4)nc(Cl)nc32)[C@H](O)[C@@H]1O)C(=O)O [Example 68]

>  <measured-target>
human CD73 (Homo sapiens)

>  <observed>
> 7.00

$$$$
>  <compound>
CC(C)(C)OC(=O)[C@@H](OC[C@H]1O[C@@H](n2cnc3c(N)nc(C#N)nc32)[C@H](O)[C@@H]1O)P(=O)(O)O (single isomer, unassigned) [Example 54b]

>  <measured-target>
human CD73 (Homo sapiens)

>  <observed>
> 7.00

$$$$
>  <compound>
CCOC(=O)C(OC[C@H]1C[C@@H](n2nnc3c(NC4CCCC4)nc(Cl)nc32)[C@H](O)[C@@H]1O)P(=O)(O)O (some centres unmarked)

>  <measured-target>
human CD73 (Homo sapiens)

>  <observed>
> 7.00

$$$$
>  <compound>
CCOC(=O)[C@H](OC[C@H]1O[C@@H](n2cnc3c(C)nc(Cl)nc32)[C@H](O)[C@@H]1O)P(=O)(O)O (single isomer, unassigned)

>  <measured-target>
human CD73 (Homo sapiens)

>  <observed>
> 7.00

$$$$
